Tested on: VCAM-1
Experiment: VCAM-1 assay: immunoassay of cell-surface VCAM-1 expression on TNF-stimulated human aortic endothelial cells (HAEC)
Format: cell-based
Conditions: TNF 250 U/mL, overnight (18 hours)
measurement.type: IC50 (µM)
Numeric only. Scale: µM

Lookup: GET /values?readout=IC50&system=VCAM-1&item= Cc1c(C)c2c(c(C)c1O)CCC(C)(COc1ccc(NC(=S)NC(c3ccccc3)c3ccccc3)cc1)O2 (stereo not shown)
Found: 23.1
